// data source = BindingDB's records for doi:10.1111/j.1747-0285.2010.00965.x

Assay system Carbonic anhydrase 2 (Homo sapiens, UniProt P00918); read-out recorded as pKi.
Lab note — pKi values are minus log10 of concentrations in M.

{"columns": ["compound", "measurement target", "pKi"],
 "data": [
  ["O=C(O)c1cc(O)c(O)c(O)c1 [Gallic Acid, F]", "Carbonic anhydrase 2 (Homo sapiens, UniProt P00918)", 3.12],
  ["COc1cc(C(=O)O)cc(OC)c1O [Syringic acid]", "Carbonic anhydrase 2 (Homo sapiens, UniProt P00918)", 3.16],
  ["O=C(O)/C=C/c1ccc(O)cc1 [p-Coumaric Acid]", "Carbonic anhydrase 2 (Homo sapiens, UniProt P00918)", 3.27]
]}

# ---- query compound ----
Input: For the compound O=c1c(O)c(-c2ccc(O)c(O)c2)oc2cc(O)cc(O)c12 , give its reported pKi.
Output: 3.98
